experiment: total protein half-life in vivo (active degradation + dilution); higher = more stable protein; settings: wild type E. coli NCM3722; growth: P-lim chemostat; doubling time 12 h
OUTCOME_MEASURE: total protein half-life in vivo (h)

{"columns": ["MACROMOLECULE_SEQUENCE", "OUTCOME_MEASURE", "OBSERVED"],
 "data": [
  ["MSTLRLLISDSYDPWFNLAVEECIFRQMPATQRVLFLWRNADTVVIGRAQNPWKECNTRRMEEDNVRLARRSSGGGAVFHDLGNTCFTFMAGKPEYDKTISTSIVLNALNALGVSAEASGRNDLVVKTVEGDRKVSGSAYRETKDRGFHHGTLLLNADLSRLANYLNPDKKKLAAKGITSVRSRVTNLTELLPGITHEQVCEAITEAFFAHYGERVEAEIISPNKTPDLPNFAETFARQSSWEWNFGQAPAFSHLLDERFTWGGVELHFDVEKGHITRAQVFTDSLNPAPLEALAGRLQGCLYRADMLQQECEALLVDFPEQEKELRELSAWMAGAVR", "total protein half-life in vivo", 11.9],
  ["MDINNKARIHWACRRGMRELDISIMPFFEHEYDSLSDDEKRIFIRLLECDDPDLFNWLMNHGKPADAELEMMVRLIQTRNRERGPVAI", "total protein half-life in vivo", 11.3],
  ["MATTHLDVCAVVPAAGFGRRMQTECPKQYLSIGNQTILEHSVHALLAHPRVKRVVIAISPGDSRFAQLPLANHPQITVVDGGDERADSVLAGLKAAGDAQWVLVHDAARPCLHQDDLARLLALSETSRTGGILAAPVRDTMKRAEPGKNAIAHTVDRNGLWHALTPQFFPRELLHDCLTRALNEGATITDEASALEYCGFHPQLVEGRADNIKVTRPEDLALAEFYLTRTIHQENT", "total protein half-life in vivo", 12]
]}

###

assay: total protein half-life in vivo (active degradation + dilution); higher = more stable protein; settings: wild type E. coli NCM3722; growth: N-lim chemostat; doubling time 6 h
Quick reference for total protein half-life in vivo among some sequences
OUTCOME_MEASURE: total protein half-life in vivo (h)

{"columns": ["MACROMOLECULE_SEQUENCE", "OBSERVED"],
 "data": [
  ["MGKLTLLLLAILVWLQYSLWFGKNGIHDYTRVNDDVAAQQATNAKLKARNDQLFAEIDDLNGGQEALEERARNELSMTRPGETFYRLVPDASKRAQSAGQNNR [P0A6S5]", 3.47],
  ["MTDNNTALKKAGLKVTLPRLKILEVLQEPDNHHVSAEDLYKRLIDMGEEIGLATVYRVLNQFDDAGIVTRHNFEGGKSVFELTQQHHHDHLICLDCGKVIEFSDDSIEARQREIAAKHGIRLTNHSLYLYGHCAEGDCREDEHAHEGK [P0A9A9]", 4.58],
  ["MKAFNKLFSLVVASVLVFSLAGCGDKEESKKFSANLNGTEIAITYVYKGDKVLKQSSETKIQFASIGATTKEDAAKTLEPLSAKYKNIAGVEEKLTYTDTYAQENVTIDMEKVDFKALQGISGINVSAEDAKKGITMAQMELVMKAAGFKEVK", 5.76],
  ["MSDTNYAVIYDLHSHTTASDGCLTPEALVHRAVEMRVGTLAITDHDTTAAIAPAREEISRSGLALNLIPGVEISTVWENHEIHIVGLNIDITHPLMCEFLAQQTERRNQRAQLIAERLEKAQIPGALEGAQRLAQGGAVTRGHFARFLVECGKASSMADVFKKYLARGKTGYVPPQWCTIEQAIDVIHHSGGKAVLAHPGRYNLSAKWLKRLVAHFAEHHGDAMEVAQCQQSPNERTQLAALARQHHLWASQGSDFHQPCPWIELGRKLWLPAGVEGVWQLWEQPQNTTEREL", 2.24]
]}

###

test: total protein half-life in vivo (active degradation + dilution); higher = more stable protein; settings: wild type E. coli NCM3722; growth: N-lim chemostat; doubling time 12 h
Reported total protein half-life in vivo is given for each of the following sequences.
OUTCOME_MEASURE: total protein half-life in vivo (h)

{"columns": ["MACROMOLECULE_SEQUENCE", "ENDPOINT_UNIT", "OBSERVED"],
 "data": [
  ["MTTRVIALDLDGTLLTPKKTLLPSSIEALARAREAGYQLIIVTGRHHVAIHPFYQALALDTPAICCNGTYLYDYHAKTVLEADPMPVIKALQLIEMLNEHHIHGLMYVDDAMVYEHPTGHVIRTSNWAQTLPPEQRPTFTQVASLAETAQQVNAVWKFALTHDDLPQLQHFGKHVEHELGLECEWSWHDQVDIARGGNSKGKRLTKWVEAQGWSMENVVAFGDNFNDISMLEAAGTGVAMGNADDAVKARANIVIGDNTTDSIAQFIYSHLI", "h", 1.52],
  ["MGNRTKEDELYREMCRVVGKVVLEMRDLGQEPKHIVIAGVLRTALANKRIQRSELEKQAMETVINALVK [P0ACX5]", "h", 15.3],
  ["MSKRLPPLNALRVFDAAARHLSFTRAAEELFVTQAAVSHQIKSLEDFLGLKLFRRRNRSLLLTEEGQSYFLDIKEIFSQLTEATRKLQARSAKGALTVSLLPSFAIHWLVPRLSSFNSAYPGIDVRIQAVDRQEDKLADDVDVAIFYGRGNWPGLRVEKLYAEYLLPVCSPLLLTGEKPLKTPEDLAKHTLLHDASRRDWQTYTRQLGLNHINVQQGPIFSHSAMVLQAAIHGQGVALANNVMAQSEIEAGRLVCPFNDVLVSKNAFYLVCHDSQAELGKIAAFRQWILAKAAAEQEKFRFRYEQ [P0A9F6]", "h", 12.1],
  ["MSDDNSHSSDTISNKKGFFSLLLSQLFHGEPKNRDELLALIRDSGQNDLIDEDTRDMLEGVMDIADQRVRDIMIPRSQMITLKRNQTLDECLDVIIESAHSRFPVISEDKDHIEGILMAKDLLPFMRSDAEAFSMDKVLRQAVVVPESKRVDRMLKEFRSQRYHMAIVIDEFGGVSGLVTIEDILELIVGEIEDEYDEEDDIDFRQLSRHTWTVRALASIEDFNEAFGTHFSDEEVDTIGGLVMQAFGHLPARGETIDIDGYQFKVAMADSRRIIQVHVKIPDDSPQPKLDE [P0AE78]", "h", 8.26],
  ["MSKPIVMERGVKYRDADKMALIPVKNVATEREALLRKPEWMKIKLPADSTRIQGIKAAMRKNGLHSVCEEASCPNLAECFNHGTATFMILGAICTRRCPFCDVAHGRPVAPDANEPVKLAQTIADMALRYVVITSVDRDDLRDGGAQHFADCITAIREKSPQIKIETLVPDFRGRMDRALDILTATPPDVFNHNLENVPRIYRQVRPGADYNWSLKLLERFKEAHPEIPTKSGLMVGLGETNEEIIEVMRDLRRHGVTMLTLGQYLQPSRHHLPVQRYVSPDEFDEMKAEALAMGFTHAACGPFVRSSYHADLQAKGMEVK", "h", 2.4],
  ["MKTAYIAKQRQISFVKSHFSRQLEERLGLIEVQAPILSRVGDGTQDNLSGCEKAVQVKVKALPDAQFEVVHSLAKWKRQTLGQHDFSAGEGLYTHMKALRPDEDRLSPLHSVYVDQWDWERVMGDGERQFSTLKSTVEAIWAGIKATEAAVSEEFGLAPFLPDQIHFVHSQELLSRYPDLDAKGRERAIAKDLGAVFLVGIGGKLSDGHRHDVRAPDYDDWSTPSELGHAGLNGDILVWNPVLEDAFELSSMGIRVDADTLKHQLALTGDEDRLELEWHQALLRGEMPQTIGGGIGQSRLTMLLLQLPHIGQVQCGVWPAAVRESVPSLL", "h", 4.02]
]}

###

test: total protein half-life in vivo (active degradation + dilution); higher = more stable protein; conditions: E. coli NCM3722 delta-smpB; growth: N-lim chemostat; doubling time 6 h

{"columns": ["MACROMOLECULE_SEQUENCE", "total protein half-life in vivo"],
 "data": [
  ["MAISIKGVNTGVIRKSNNFIALALKIKEPRNKESLFFMSVMELRDLLIALESRLHQKHKLDAAAHLQYEQARDKVIKKMAENIPEILVDELKNADINRRVNTLELTDNQGENLTFVLTLHDGSKCELVVNELQIEMLARAIIHAINNAEMRELALRITSLLDFLPLYDVDCQDNGNLEYDTYSQPEWKHNLFDHYLAVLYRFKDESGKEQFSGAVVKTREATPGKEIEAITRRMLDFSPRLKKLAGVPCQVYVRTVAANNAQPLTQDQCLRALHHLRVQSTSKTAPQAK", "2.7 h"],
  ["MSFELPALPYAKDALAPHISAETIEYHYGKHHQTYVTNLNNLIKGTAFEGKSLEEIIRSSEGGVFNNAAQVWNHTFYWNCLAPNAGGEPTGKVAEAIAASFGSFADFKAQFTDAAIKNFGSGWTWLVKNSDGKLAIVSTSNAGTPLTTDATPLLTVDVWEHAYYIDYRNARPGYLEHFWALVNWEFVAKNLAA [P0AGD3]", "4.8 h"],
  ["MTAPSQVLKIRRPDDWHLHLRDGDMLKTVVPYTSEIYGRAIVMPNLAPPVTTVEAAVAYRQRILDAVPAGHDFTPLMTCYLTDSLDPNELERGFNEGVFTAAKLYPANATTNSSHGVTSIDAIMPVLERMEKIGMPLLVHGEVTHADIDIFDREARFIESVMEPLRQRLTALKVVFEHITTKDAADYVRDGNERLAATITPQHLMFNRNHMLVGGVRPHLYCLPILKRNIHQQALRELVASGFNRVFLGTDSAPHARHRKESSCGCAGCFNAPTALGSYATVFEEMNALQHFEAFCSVNGPQFYGLPVNDTFIELVREEQQVAESIALTDDTLVPFLAGETVRWSVKQ", "4.78 h"],
  ["MIKKIGVLTSGGDAPGMNAAIRGVVRSALTEGLEVMGIYDGYLGLYEDRMVQLDRYSVSDMINRGGTFLGSARFPEFRDENIRAVAIENLKKRGIDALVVIGGDGSYMGAMRLTEMGFPCIGLPGTIDNDIKGTDYTIGFFTALSTVVEAIDRLRDTSSSHQRISVVEVMGRYCGDLTLAAAIAGGCEFVVVPEVEFSREDLVNEIKAGIAKGKKHAIVAITEHMCDVDELAHFIEKETGRETRATVLGHIQRGGSPVPYDRILASRMGAYAIDLLLAGYGGRCVGIQNEQLVHHDIIDAIENMKRPFKGDWLDCAKKLY [P0A796]", "3.89 h"],
  ["MNLHEYQAKQLFARYGLPAPVGYACTTPREAEEAASKIGAGPWVVKCQVHAGGRGKAGGVKVVNSKEDIRAFAENWLGKRLVTYQTDANGQPVNQILVEAATDIAKELYLGAVVDRSSRRVVFMASTEGGVEIEKVAEETPHLIHKVALDPLTGPMPYQGRELAFKLGLEGKLVQQFTKIFMGLATIFLERDLALIEINPLVITKQGDLICLDGKLGADGNALFRQPDLREMRDQSQEDPREAQAAQWELNYVALDGNIGCMVNGAGLAMGTMDIVKLHGGEPANFLDVGGGATKERVTEAFKIILSDDKVKAVLVNIFGGIVRCDLIADGIIGAVAEVGVNVPVVVRLEGNNAELGAKKLADSGLNIIAAKGLTDAAQQVVAAVEGK [P0A836]", "4.18 h"]
]}
